Data credit: ChEMBL document CHEMBL3988442

Can you tell me Percent Effect for the items I'm about to list?
# EXPERIMENTAL TARGET: Sialic acid-binding Ig-like lectin 9 (Homo sapiens) (UniProt Q9Y336)
# Sequence (Q9Y336 whole entry): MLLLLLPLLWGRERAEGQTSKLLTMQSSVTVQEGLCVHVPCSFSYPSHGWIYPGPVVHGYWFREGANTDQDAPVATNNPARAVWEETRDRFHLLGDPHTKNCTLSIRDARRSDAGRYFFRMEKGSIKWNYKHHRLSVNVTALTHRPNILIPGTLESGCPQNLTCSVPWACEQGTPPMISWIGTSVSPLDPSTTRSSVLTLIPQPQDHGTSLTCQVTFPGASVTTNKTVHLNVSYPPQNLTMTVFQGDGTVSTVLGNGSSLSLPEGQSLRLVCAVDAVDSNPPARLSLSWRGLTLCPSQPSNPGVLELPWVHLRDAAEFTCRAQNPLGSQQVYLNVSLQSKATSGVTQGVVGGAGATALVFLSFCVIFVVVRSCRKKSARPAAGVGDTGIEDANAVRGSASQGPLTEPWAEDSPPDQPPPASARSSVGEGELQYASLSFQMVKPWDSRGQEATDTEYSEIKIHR
# EXPERIMENTAL DETAILS: Hs-Siglec9 ALPHAscreen SOP 20170721
# Set-up: scale not given: direction of the effect not stated beside the values
# CONDITIONS USED: 10 µM
Give a bare numeral; the unit % is implied.

INPUT: Give the reported value of Percent Effect for this record: Cc1nc(C)n(CC2CCCN2Cc2ccn(-c3ccccc3)n2)n1 (stereo not drawn)
OUTPUT: 13.8

INPUT: For `Cc1ccc(C(=O)N2C[C@@H]3OCCN(CCN4CCCC4)[C@@H]3C2)cn1` , write its Percent Effect.
OUTPUT: -5.24

INPUT: State, in one line, measured Percent Effect of `CN(CCNC(=O)N1CCN(Cc2ccon2)CC1)c1ccccc1`
OUTPUT: 0.269

INPUT: Return value of Percent Effect for input Cc1cnc(CN(C)C2CCN(CC(=O)Nc3nncs3)C2)o1 (stereo not drawn) , no commentary.
OUTPUT: -8.69

INPUT: Please supply the value of reported Percent Effect for the item COc1cccc(-c2noc(C3CCN(Cc4cn(C)nc4C)C3)n2)c1 (stereo not drawn)
OUTPUT: 3.58

INPUT: For the compound CC(C)c1nc(CN(C)C2CCN(Cc3nc(C4CC4)no3)C2)no1 (stereo not drawn) , report Percent Effect.
OUTPUT: 4.44

INPUT: Name the recorded Percent Effect of the compound listed here: `Cc1cc(CN2CCN(CCOc3cccc(C#N)c3)CC2)no1`
OUTPUT: -11.5

INPUT: Annotate the compound COc1ccc(OCC(=O)NC(C)c2ccccc2)c(C(=O)O)c1 (stereo not drawn) with its measured Percent Effect.
OUTPUT: 3.42

INPUT: Determine from records and report Percent Effect for CCc1n[nH]c(C2CN(C(=O)CCc3cccs3)CCO2)n1 (stereo not drawn)
OUTPUT: -7.1

INPUT: Please list Percent Effect recorded for the compound `CC1=N[C@@]2(CC[C@@H]3CN(S(=O)(=O)N(C)C)C[C@@H]32)C(=O)N1CC(C)C`
OUTPUT: -13.6

INPUT: Fill in Percent Effect for record `O=C(Nc1cnccn1)[C@@H]1COC[C@H]2CN(C3CCCC3)C[C@H]21`
OUTPUT: 16.7

INPUT: Please indicate Percent Effect recorded for Cn1cc(CN2CCOC3(CCCN(C(=O)c4ccco4)C3)C2)cn1 (stereo not drawn)
OUTPUT: 4.5

INPUT: Let me know recorded Percent Effect for `CC(C)n1cc(C(=O)N2Cc3ccccc3OC3(CCOCC3)C2)cn1` , thanks.
OUTPUT: -5.24

INPUT: Give Percent Effect for the following compound: `Cc1ccsc1CN(C)Cc1nc2c(cnn2C)c(=O)[nH]1`
OUTPUT: -7.51

INPUT: Name the recorded Percent Effect of the compound listed here: `O=C(Cc1cccnc1)N1CCC2(CC1)CCN(C1CCOCC1)C2`
OUTPUT: -0.504

INPUT: Return reported Percent Effect. Input compound: CCC(OC)C(=O)N1CCc2nc(NC)nc(C(=O)N3CCCC3)c2C1 (stereo not drawn)
OUTPUT: 7.16

INPUT: Please give measured Percent Effect of the following entry: CCc1csc(C2CCCN(C(=O)c3cnn(CC)c3)C2)n1 (stereo not drawn)
OUTPUT: -1.18

INPUT: Given `Cc1cccc(-c2ccc(C(=O)NCCN(C)C3CC3)c(=O)[nH]2)c1` , respond with its Percent Effect.
OUTPUT: -0.0788
